Reference source: the supplement of paper PMC10981050

Test system: MARIMO;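 also: after 48 h exposure read by CellTiter-Glo luminescence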
Assay: cell viability relative to vehicle control; higher = less cytotoxic
Conditions: 10 µM; SRSF2 genotype: SRSF2 P95H/wt
Structures can show the parent of a compound that is named as a salt.
Please provide measured cell viability for the entries that follow.
Numbers only, in %.

Examples with answers:
| compound | cell viability [%] |
| --- | --- |
| Nc1ncnc2c1ccn2[C@@H]1O[C@H](CO)[C@@H](O)[C@H]1O [Tubercidin] | 1.78 |
| COC(=O)Nc1nc2ccccc2[nH]1 [Carbendazim] | 36.2 |
| C[N+]1(C)CCCC(OC(=O)C(O)(c2ccccc2)c2ccccc2)C1 (stereo not drawn) [mepenzolate bromide] | 103 |

Here are 5 compounds. What values of cell viability were reported for them?
1. Cc1cccc(Cc2c[nH]cn2)c1C [Detomidine HCl]
2. COC1CC(OC2CCC3(C)C(CCC45OC46CCC(C(C)=O)C6(C)C(OC(C)=O)C(OC(=O)c4ccccc4)C35)C2)OC(C)C1OC1OC(C)C(O)C(OC)C1O (stereo not drawn) [Tenacissoside I]
3. C/C(=C\c1csc(C)n1)[C@@H]1C[C@@H]2O[C@@H]2CCC[C@H](C)[C@H](O)[C@@H](C)C(=O)C(C)(C)[C@@H](O)CC(=O)O1 [Epothilone A]
4. COc1cc(C)[nH]c(=O)c1CNC(=O)c1c(C)n([C@H](C)C2CCN(CC(F)(F)F)CC2)c2ccccc12
5. COC(=O)C1=CCCN(C)C1 [Arecoline HBr]

Response:
103
88.2
7.48
103
96
